Just for reference, patent US20210040155A1 is where these values come from.

- experimentalSystem: melanocortin-3 receptor (human, UniProt P41968 1-323)
- Sequence (P41968 whole entry): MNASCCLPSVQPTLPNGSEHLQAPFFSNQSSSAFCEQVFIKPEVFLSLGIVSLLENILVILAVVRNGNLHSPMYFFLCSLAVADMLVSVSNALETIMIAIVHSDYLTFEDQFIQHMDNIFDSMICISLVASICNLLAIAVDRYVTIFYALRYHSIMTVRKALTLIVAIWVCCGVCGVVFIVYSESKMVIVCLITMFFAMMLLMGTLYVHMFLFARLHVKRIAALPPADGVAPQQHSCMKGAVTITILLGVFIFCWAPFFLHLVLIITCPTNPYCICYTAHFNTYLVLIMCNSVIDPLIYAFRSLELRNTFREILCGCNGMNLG
- assayRemarks: cell-based or functional assay
Bridge positions count the residues as written; N and C are the ends. Square brackets hold non-standard residues; d marks the D form. hCys = N[C@@H](CCS)C(=O)O
experimentalReadout: cAMP Assay (EC-50) (nM)

Below are worked cases with known answers.
binder: Ac-R[hCys][dA][dF]RWC-NH2 (disulfide 2-7; SMILES CC(=O)N[C@@H](CCCNC(=N)N)C(=O)N[C@H]1CCSSC[C@@H](C(N)=O)NC(=O)[C@H](Cc2c[nH]c3ccccc23)NC(=O)[C@H](CCCNC(=N)N)NC(=O)[C@@H](Cc2ccccc2)NC(=O)[C@@H](C)NC1=O) [Ac-Arg-cyclo[hCys-D-Ala-D-Phe-Arg-Trp-Cys]-NH2]
cAMP Assay (EC-50) / nM: 3160

binder: Ac-RC[dA]R[dF]RWC-NH2 (disulfide 2-8; SMILES CC(=O)N[C@@H](CCCNC(=N)N)C(=O)N[C@H]1CSSC[C@@H](C(N)=O)NC(=O)[C@H](Cc2c[nH]c3ccccc23)NC(=O)[C@H](CCCNC(=N)N)NC(=O)[C@@H](Cc2ccccc2)NC(=O)[C@H](CCCNC(=N)N)NC(=O)[C@@H](C)NC1=O) [Ac-Arg-cyclo[Cys-D-Ala-Arg-D-Phe-Arg-Trp-Cys]-NH2]
cAMP Assay (EC-50) / nM: 3.9

binder: Ac-ECAH[dF]RWC-NH2 (disulfide 2-8; SMILES CC(=O)N[C@@H](CCC(=O)O)C(=O)N[C@H]1CSSC[C@@H](C(N)=O)NC(=O)[C@H](Cc2c[nH]c3ccccc23)NC(=O)[C@H](CCCNC(=N)N)NC(=O)[C@@H](Cc2ccccc2)NC(=O)[C@H](Cc2c[nH]cn2)NC(=O)[C@H](C)NC1=O) [Ac-Glu-cyclo[Cys-Ala-His-D-Phe-Arg-Trp-Cys]-NH2]
cAMP Assay (EC-50) / nM: 9.9

[1] Ac-RC[dV]H[dF]RWC-NH2 (disulfide 2-8) [Ac-Arg-cyclo[Cys-D-Val-His-D-Phe-Arg-Trp-Cys]-NH2]
[2] Ac-RC[dI]H[dF]RWC-NH2 (disulfide 2-8) [Ac-Arg-cyclo[Cys-D-Ile-His-D-Phe-Arg-Trp-Cys]-NH2]
Q) I'd appreciate it if you could identify which of 1 and 2 has the greater cAMP Assay (EC-50). Give the label under which the chosen entry appears.
A) 1
(1: 1.59 nM, 2: 0.96 nM)
